Please respond with reported level, % of control at 1 µM for every item in the list.
Tested on: BV-2
test_description: Antiinflammatory activity in LPS induced mouse BV-2 cells assessed as NO production at 1 uM by Griess reagent based assay relative to control
The response must be a number in % with no trailing unit.

Determine from records and report level, % of control at 1 µM for COc1c2n(cc(C(=O)Nc3cccc(-c4cn(-c5ccc(F)cc5)nn4)c3)c1=O)C[C@H]1OC[C@H](C)N1C2=O
129

Give a short answer stating reported level, % of control at 1 µM for COc1c2n(cc(C(=O)Nc3cccc(-c4cn(-c5cc(C(F)(F)F)cc(C(F)(F)F)c5)nn4)c3)c1=O)C[C@H]1OC[C@H](C)N1C2=O .
114

Output level, % of control at 1 µM of COc1c2n(cc(C(=O)Nc3cccc(-c4cn(-c5c(C)cc(C)cc5C)nn4)c3)c1=O)C[C@@H]1OCC[C@@H](C)N1C2=O
85.1

Write down level, % of control at 1 µM measured for item COc1c2n(cc(C(=O)Nc3cccc(-c4cn(-c5ccc(F)cc5)nn4)c3)c1=O)C[C@@H]1OCC[C@@H](C)N1C2=O
76.6

Look up and report measured level, % of control at 1 µM for this entry: COc1ccccc1-n1cc(-c2cccc(NC(=O)c3cn4c(c(OC)c3=O)C(=O)N3[C@H](C)CCO[C@H]3C4)c2)nn1
76

Report level, % of control at 1 µM for C[C@@H]1CCO[C@H]2Cn3cc(C(=O)NCc4ccc(F)cc4F)c(=O)c(O)c3C(=O)N12
96

Using known records, supply level, % of control at 1 µM for COc1c2n(cc(C(=O)Nc3cccc(-c4cn(-c5ccccc5I)nn4)c3)c1=O)C[C@@H]1OCC[C@@H](C)N1C2=O
78.4

----------
Tested on: BV-2
test_description: Antiinflammatory activity in LPS induced mouse BV-2 cells assessed as NO production at 10 uM by Griess reagent based assay relative to control
Would you kindly list level, % of control at 10 µM for each of these molecules?
Reply numerically in %, unit not repeated.

Look up and report measured level, % of control at 10 µM for this entry: COc1c2n(cc(C(=O)Nc3cccc(-c4cn(-c5ccccc5Cl)nn4)c3)c1=O)C[C@@H]1OCC[C@@H](C)N1C2=O
43

Tell us which level, % of control at 10 µM value is on record for C[C@@H]1CCO[C@H]2Cn3cc(C(=O)NCc4ccc(F)cc4F)c(=O)c(O)c3C(=O)N12 [DOLUTEGRAVIR]
51.2

Hello, please tell me recorded level, % of control at 10 µM for this one: COc1c2n(cc(C(=O)Nc3ccccc3-c3cn(-c4cc(C(F)(F)F)cc(C(F)(F)F)c4)nn3)c1=O)C[C@@H]1OCC[C@@H](C)N1C2=O
73

Look up and report measured level, % of control at 10 µM for this entry: COc1c2n(cc(C(=O)Nc3cccc(-c4cn(-c5ccc(C(F)(F)F)cc5)nn4)c3)c1=O)C[C@@H]1OCC[C@@H](C)N1C2=O
48.3

Entry COc1c2n(cc(C(=O)Nc3ccccc3-c3cn(-c4ccccc4I)nn3)c1=O)C[C@@H]1OCC[C@@H](C)N1C2=O needs its level, % of control at 10 µM filled in; supply it.
56.3

----------
test_description: Cytotoxicity against mouse BV-2 cells assessed as cell viability at 10 uM by MTT assay relative to control
Assay type: toxicity, cell-based
stated_conditions: read-out: Activity
endpoint_name: viability at 10 µM (%)
# value in %; strip the unit string

// Input: COc1c2n(cc(C(=O)Nc3ccccc3-c3cn(-c4ccccc4I)nn3)c1=O)C[C@@H]1OCC[C@@H](C)N1C2=O . Output its viability at 10 µM only.
65.8

Indicate the recorded viability at 10 µM value for this compound: COc1c2n(cc(C(=O)Nc3ccc(-c4cn(-c5ccccc5F)nn4)cc3)c1=O)C[C@@H]1OCC[C@@H](C)N1C2=O
83

Recall and state the measured viability at 10 µM for CCc1ccccc1-n1cc(-c2ccc(NC(=O)c3cn4c(c(OC)c3=O)C(=O)N3[C@H](C)CCO[C@H]3C4)cc2)nn1 .
123

Using known records, supply viability at 10 µM for COc1ccccc1-n1cc(-c2ccc(NC(=O)c3cn4c(c(OC)c3=O)C(=O)N3[C@H](C)CCO[C@H]3C4)cc2)nn1
81.6

Using the record for COc1ccccc1-n1cc(-c2ccccc2NC(=O)c2cn3c(c(OC)c2=O)C(=O)N2[C@H](C)CCO[C@H]2C3)nn1 , state its measured viability at 10 µM.
93.5

State its viability at 10 µM: COc1c2n(cc(C(=O)Nc3cccc(-c4cn(-c5ccccc5C(F)(F)F)nn4)c3)c1=O)C[C@H]1OC[C@H](C)N1C2=O
42.9

Complete the entry with viability at 10 µM for COc1c2n(cc(C(=O)Nc3cccc(-c4cn(-c5cccc(C(F)(F)F)c5)nn4)c3)c1=O)C[C@H]1OC[C@H](C)N1C2=O
43.6

----------
test_description: Cytotoxicity against mouse BV-2 cells assessed as cell viability at 10 uM by MTT assay relative to control
Assay type: toxicity, cell-based
stated_conditions: read-out: Activity
endpoint_name: viability at 10 µM (%)
The response must be a number in % with no trailing unit.

Specify reported viability at 10 µM for the molecule shown: COc1c2n(cc(C(=O)Nc3cccc(-c4cn(-c5cc(C(F)(F)F)ccc5C(F)(F)F)nn4)c3)c1=O)C[C@@H]1OCC[C@@H](C)N1C2=O
42

Write down viability at 10 µM measured for item COc1c2n(cc(C(=O)Nc3cccc(-c4cn(-c5ccc(C(F)(F)F)cc5)nn4)c3)c1=O)C[C@H]1OC[C@H](C)N1C2=O
63.3

Annotate the molecule COc1c2n(cc(C(=O)Nc3ccccc3-c3cn(-c4cc(C(F)(F)F)cc(C(F)(F)F)c4)nn3)c1=O)C[C@@H]1OCC[C@@H](C)N1C2=O with its measured viability at 10 µM.
112

Name the recorded viability at 10 µM of the molecule listed here: COc1c2n(cc(C(=O)Nc3cccc(-c4cn(-c5c(C)cc(C)cc5C)nn4)c3)c1=O)C[C@@H]1OCC[C@@H](C)N1C2=O
96.7

Return viability at 10 µM (reported value) for this molecule: COc1c2n(cc(C(=O)Nc3ccc(-c4cn(-c5ccccc5)nn4)cc3)c1=O)C[C@@H]1OCC[C@@H](C)N1C2=O
70.2

Find the measured viability at 10 µM of COc1c2n(cc(C(=O)Nc3cccc(-c4cn(-c5cc(C(F)(F)F)cc(C(F)(F)F)c5)nn4)c3)c1=O)C[C@@H]1OCC[C@@H](C)N1C2=O and report it.
71.3

Specify measured viability at 10 µM for COc1c2n(cc(C(=O)Nc3cccc(-c4cn(-c5ccc(F)cc5)nn4)c3)c1=O)C[C@@H]1OCC[C@@H](C)N1C2=O .
69.2

Let me know recorded viability at 10 µM for COc1c2n(cc(C(=O)Nc3cccc(-c4cn(-c5ccccc5Cl)nn4)c3)c1=O)C[C@H]1OC[C@H](C)N1C2=O , thanks.
43.6

Kindly indicate its recorded viability at 10 µM. Item: COc1c2n(cc(C(=O)Nc3cccc(-c4cn(-c5ccccc5Cl)nn4)c3)c1=O)C[C@@H]1OCC[C@@H](C)N1C2=O
86.7

Given COc1c2n(cc(C(=O)Nc3ccc(-c4cn(-c5ccccc5C(F)(F)F)nn4)cc3)c1=O)C[C@@H]1OCC[C@@H](C)N1C2=O , respond with its viability at 10 µM.
103

State its viability at 10 µM: COc1c2n(cc(C(=O)Nc3cccc(-c4cn(-c5cc(C(F)(F)F)ccc5C(F)(F)F)nn4)c3)c1=O)C[C@H]1OC[C@H](C)N1C2=O
71.1

Give the reported viability at 10 µM for this molecule. COc1c2n(cc(C(=O)Nc3cccc(-c4cn(-c5cccc(C(F)(F)F)c5)nn4)c3)c1=O)C[C@@H]1OCC[C@@H](C)N1C2=O
16.2

Give viability at 10 µM for the following molecule: COc1c2n(cc(C(=O)Nc3cccc(-c4cn(-c5ccc(C(F)(F)F)cc5)nn4)c3)c1=O)C[C@@H]1OCC[C@@H](C)N1C2=O
56.3

----------
Tested on: BV-2
test_description: Antiinflammatory activity in LPS induced mouse BV-2 cells assessed as NO production at 1 uM by Griess reagent based assay relative to control
Would you mind telling me the reported level, % of control at 1 µM of each entry?
Give your result in % as a bare value.

Please look at this molecule and report its level, % of control at 1 µM: COc1c2n(cc(C(=O)Nc3cccc(-c4cn(-c5ccc(C(F)(F)F)cc5)nn4)c3)c1=O)C[C@H]1OC[C@H](C)N1C2=O
102

State, in one line, measured level, % of control at 1 µM of COc1c2n(cc(C(=O)Nc3cccc(-c4cn(-c5c(C)cc(C)cc5C)nn4)c3)c1=O)C[C@H]1OC[C@H](C)N1C2=O
116

Please supply the value of reported level, % of control at 1 µM for the item COc1c2n(cc(C(=O)Nc3cccc(-c4cn(-c5ccccc5C(F)(F)F)nn4)c3)c1=O)C[C@H]1OC[C@H](C)N1C2=O
103

Kindly indicate its recorded level, % of control at 1 µM. Item: COc1ccccc1-n1cc(-c2cccc(NC(=O)c3cn4c(c(OC)c3=O)C(=O)N3[C@@H](C)CO[C@@H]3C4)c2)nn1
96.5

The measured values listed here are drawn from ChEMBL document CHEMBL6153034.
